Where do the numbers come from? From paper PMC9729583.

# Tested on: Calu-3 cells
# protocol summary: PrestoBlue cytotoxicity assay
# Type: cell-based, human
# particulars: Calu-3, 48 h incubation

molecule: CC(C)=CCc1cc([C@@H]2CC(=O)c3c(O)cc(O)c(CC=C(C)C)c3O2)cc(CC=C(C)C)c1O [5-hydroxysophoranone]
units label: µM
cmp: >
CC50: 100

molecule: C=CC(C)(C)c1[nH]c2ccccc2c1-c1c(O)c(OC)c2c(c1OC)O[C@H]1Nc3ccccc3[C@@]21O
units label: µM
cmp: =
CC50: 72

molecule: COc1cc([C@H]2OC[C@]3(O)[C@@H](c4ccc(O)c(OC)c4)OC[C@H]23)ccc1O [8-hydroxypinoresinol]
units label: µM
cmp: >
CC50: 100

molecule: CC(=O)O[C@H]1CC[C@]2(C)[C@H]3CC[C@]4(C)Oc5oc(C)cc(=O)c5C[C@H]4[C@]3(C)CC[C@H]2C1(C)C
units label: µM
cmp: =
CC50: 93
